B1: r11_951_TrROS_Hall (parent)
chain: KKKYVIKVYFEDTGKEVEIEAESKEEALEAAKRLAEELGLKIKKVEIYP

variants of: B1; assay: folding stability dG (cDNA display proteolysis); higher = more stable; settings: PBS, room temperature
Given measured folding stability dG, output yes if it is greater than or equal to 4 kcal/mol and no if not.

G14M: yes

Is reported folding stability dG greater than or equal to 4 kcal/mol here: "K41C"
yes

For this variant, is measured folding stability dG 4 kcal/mol or higher? "A30V"
yes

folding stability dG >= 4 kcal/mol for "Y4F" ?
yes

For this variant, is measured folding stability dG 4 kcal/mol or higher? "K41L"
yes

Can "I19K" be said to have folding stability dG at or above 4 kcal/mol?
no

Record "I6Y" ; criterion: folding stability dG no lower than 4 kcal/mol. Met?
yes

Could you please find out whether "A35Y" has folding stability dG that meets 4 kcal/mol or exceeds it?
no

Test whether the variant "E18A" records folding stability dG of 4 kcal/mol or higher.
yes

# bool: folding stability dG of "L28M" >= 4 kcal/mol
yes

In plain terms: is recorded folding stability dG at least 4 kcal/mol for "K43L" ?
yes
